In this section, each of the compounds is paired with its reported logP.

{"Compound": "Cc1ccc(C(=O)CCN2CCCCC2)cc1", "logP": 3.55}
{"Compound": "CC(C)(CN1CCCCC1)C(=O)c1ccccc1", "logP": 3.78}
{"Compound": "CCCOc1ccc(C(=O)CCN2CCCCC2)cc1", "logP": 3.72}
{"Compound": "Cc1cc(C)c(C(=O)C(C)CN2CCCCC2)c(C)c1 (stereo not drawn)", "logP": 3.98}
{"Compound": "CCCOc1ccc(C(=O)C(C)(C)CN2CCCCC2)cc1", "logP": 4.07}
{"Compound": "CCCOc1cc(C)c(C(=O)C(C)(C)CN2CCCCC2)c(C)c1", "logP": 4.51}
{"Compound": "Cc1ccc(C(=O)C(C)CN2CCCCC2)cc1 (stereo not drawn)", "logP": 3.65}
{"Compound": "Cc1ccccc1C(=O)C(C)CN1CCCCC1 (stereo not drawn)", "logP": 3.69}
{"Compound": "Cc1ccc(C(=O)C(C)(C)CN2CCCCC2)cc1", "logP": 3.92}
{"Compound": "Cc1ccc(C(=O)C(C)CN2CCCCC2)c(C)c1 (stereo not drawn)", "logP": 3.85}
{"Compound": "Cc1ccc(C(=O)CCN2CCCCC2)c(C)c1", "logP": 3.71}
{"Compound": "CCCOc1ccc(C(=O)CCN2CCCCC2)c(C)c1", "logP": 3.88}
{"Compound": "CCCOc1ccc(C(=O)C(C)CN2CCCCC2)cc1 (stereo not drawn)", "logP": 3.81}
{"Compound": "CC(CN1CCCCC1)C(=O)c1ccccc1 (stereo not drawn)", "logP": 3.51}
{"Compound": "Cc1ccccc1C(=O)CCN1CCCCC1", "logP": 3.54}
{"Compound": "CCCOc1cc(C)c(C(=O)C(C)CN2CCCCC2)c(C)c1 (stereo not drawn)", "logP": 4.11}
{"Compound": "CCCOc1ccc(C(=O)C(C)CN2CCCCC2)c(C)c1 (stereo not drawn)", "logP": 4}
{"Compound": "Cc1cccc(C)c1C(=O)CCN1CCCCC1", "logP": 3.53}
{"Compound": "Cc1cc(C)c(C(=O)CCN2CCCCC2)c(C)c1", "logP": 3.7}
{"Compound": "CCCOc1cc(C)c(C(=O)CCN2CCCCC2)c(C)c1", "logP": 3.84}
{"Compound": "Cc1cccc(C)c1C(=O)C(C)(C)CN1CCCCC1", "logP": 4.2}
{"Compound": "Cc1cc(C)c(C(=O)C(C)(C)CN2CCCCC2)c(C)c1", "logP": 4.36}
{"Compound": "Cc1cccc(C)c1C(=O)C(C)CN1CCCCC1 (stereo not drawn)", "logP": 3.81}
